Target: SB10 transposase (synthetic Sleeping Beauty transposon)
Test: MST; specific (first) transition; Full-length MST: 50 mM Tris pH 7.5, 5 mM MgCl2, 300 mM NaCl, 2% glycerol, 50 mM Arg-Glu, 1 mM TCEP, 0.1% Triton X-100, 0.1 mg/ml BSA, 30 nM Cy5-DNA, room temp
Settings: protein: recombinant; tags: Ni-NTA purified; label: 5' Cy5 on forward strand (MST)
Readout type: Kd (nM)
One number for each entry, in nM.

These solved cases illustrate the format of a correct answer.
                                     binder  unit_abbreviation  endpoint_result
0  Lo (dsDNA) DNA 1: CAGTTGAAGTCGGAAGTTTACATACACTTAAG DNA 2: CTTAAGTGTATGTAAACTTCCGACTTCAACTG                 nM             16.6
1  DR-core (dsDNA) DNA 1: TCGGAAGTTTACATACAC DNA 2: GTGTATGTAAACTTCCGA                 nM             25.3

// next entry
Prompt line: # input binder: Li (dsDNA) DNA 1: TCCAGTGGGTCAGAAGTTTACATACACTAAGT DNA 2: ACTTAGTGTATGTAAACTTCTGACCCACTGGA ; wanted: its Kd
Response line: 17.3
